molecular target: PDE5 (Homo sapiens)
attributeMeasured: IC50

**Q:** Look up IC50 with PDE5 (Homo sapiens) for this compound: CSc1ccc(/C=C2/C(C)=C(CC(=O)O)c3cc(F)ccc32)cc1 [SS, sulindac sulfide]
**A:** ~100 µM
